biological target: BRD4 BD2 (Homo sapiens, UniProt O60885); assay: AlphaScreen binding assay, BRD4 Bromodomain 2
compounds and their reported IC50

Request: I'd like to know its IC50. The compound in question is CC(=O)N1c2ccc(-c3ccc(S(C)(=O)=O)cc3)cc2N(c2nc3ccccc3o2)C[C@@H]1C [Example I-46]
Response: > 500 nM

Request: I'd like to know its IC50. The compound in question is CC(=O)N1c2ccc(-c3ccc(S(=O)(=O)CC(C)C)cc3)cc2N(C(=O)C2CC2)C[C@@H]1C [Example I-1078]
Response: 50 to 500 nM

Request: I'd like to know its IC50. The compound in question is CC(=O)N1c2ccc(-c3ccc(C(=O)N4CCNCC4)cc3)cc2N(C(=O)c2ccco2)C[C@@H]1C [Example I-422]
Response: < 50 nM

Request: I'd like to know its IC50. The compound in question is CC(=O)N1c2ccc(-c3c(C)noc3C)cc2N(C(=O)c2ccco2)C[C@@H]1C [Example I-816]
Response: > 500 nM

====

Biological target: BRD4 BD1 (Homo sapiens, UniProt O60885)
Experiment: AlphaScreen binding assay, BRD4 Bromodomain 1
Procedure: The binding of Example compounds to BRD4 Bromodomain 1 and BRD4 Bromodomain 2 was assessed using 384-well AlphaScreen assay technology. His-epitope tagged BRD4 BD144-168 and BRD4 BD2333-460 were cloned, expressed, and purified to homogeneity. BRD4 BD1 and BRD4 BD2 binding and inhibition was assessed by monitoring the engagement of biotinylated Histone H4 (1-21) K5/8/12/16 tetra-acetylated peptide with the targets using the AlphaScreen technology (PerkinElmer). […]
pIC50: −log10 of the molar value.
compounds and their reported pIC50

A selection of reference data follows.
> print(dat)
                               smiles.entry     obs.value
1  CC(=O)N1c2ccc(-c3cnn(Cc4cncs4)c3)cc2N(C(=O)C2CC2)C[C@@H]1C  6.00 to 7.00
2  CC(=O)N1c2ccc(-c3cnn(CCN4CCCC4=O)c3)cc2N(C(=O)C2CC2)C[C@@H]1C  5.00 to 6.00
3  CC(C)OC(=O)N1C[C@H](C)N(C(=O)C2CC2)c2ccc(-c3cnn(C4CCNCC4)c3)cc21  6.00 to 7.00
4  CC(=O)N1c2ccccc2N(C(=O)c2csc(C)n2)C[C@@H]1C        < 5.00

Request: I'd like to know its pIC50. The compound in question is CC(=O)N1c2ccc(-c3cncn3C)cc2N(C(=O)c2ccco2)C[C@@H]1C
Response: < 5.00

Request: I'd like to know its pIC50. The compound in question is CC(=O)N1c2ccc(-c3ccc(S(C)(=O)=O)cc3)cc2N(C=O)C[C@@H]1C
Response: < 5.00

Request: I'd like to know its pIC50. The compound in question is CC(=O)N1c2ccc(-c3cnn(C4CNC4)c3)cc2N(C(=O)OC2CCCCC2)C[C@@H]1C
Response: > 7.00

Request: I'd like to know its pIC50. The compound in question is CC(=O)N1c2ccc(-c3cnn(CCO)c3)cc2N(C(=O)Oc2ccccn2)C[C@@H]1C
Response: 6.00 to 7.00

Request: I'd like to know its pIC50. The compound in question is CC(=O)N1c2ccc(-c3cccc(-c4ccccc4)c3)cc2N(C(=O)COc2ccccc2)C[C@@H]1C
Response: < 5.00

Request: I'd like to know its pIC50. The compound in question is CCCS(=O)(=O)c1ccc(-c2ccc3c(c2)N(C(=O)C2CC2)C[C@H](C)N3C(C)=O)cc1
Response: 5.00 to 6.00

Request: I'd like to know its pIC50. The compound in question is CC(=O)N1c2ccc(-c3ccc(S(C)(=O)=O)cc3)cc2N(c2nccc(-c3ccccc3)n2)C[C@@H]1C
Response: 5.00 to 6.00

====

Target: BRD4 BD1 (Homo sapiens, UniProt O60885)
Assay: AlphaScreen binding assay, BRD4 Bromodomain 1
Description: The binding of Example compounds to BRD4 Bromodomain 1 and BRD4 Bromodomain 2 was assessed using 384-well AlphaScreen assay technology. His-epitope tagged BRD4 BD144-168 and BRD4 BD2333-460 were cloned, expressed, and purified to homogeneity. BRD4 BD1 and BRD4 BD2 binding and inhibition was assessed by monitoring the engagement of biotinylated Histone H4 (1-21) K5/8/12/16 tetra-acetylated peptide with the targets using the AlphaScreen technology (PerkinElmer). […]
compounds and their reported IC50

> print(dat)
                                   compound                             study.system  quantity   obs.value
1  CC(=O)N1c2ccc(Oc3ccccc3)nc2N(C(=O)C2CC2)C[C@@H]1C [Example I-97]  BRD4 BD1 (Homo sapiens, UniProt O60885)      IC50  > 10000 nM

Request: // lookup IC50 | system=BRD4 BD1 (Homo sapiens, UniProt O60885) | key= CC(=O)N1c2ccccc2N(S(=O)(=O)Cc2cccc(Cl)c2)C[C@@H]1C [Example I-955]
Response: > 10000 nM

Request: // lookup IC50 | system=BRD4 BD1 (Homo sapiens, UniProt O60885) | key= CC(=O)N1c2ccc(-c3cnn(CC4(CO)COC4)c3)cc2N(C(=O)C2CC2)C[C@@H]1C [Example I-662]
Response: 100 to 1000 nM

Request: // lookup IC50 | system=BRD4 BD1 (Homo sapiens, UniProt O60885) | key= CC(=O)N1c2ccc(-c3cnn(C4CCNCC4)c3)cc2N(c2nn(C)c3cnccc23)C[C@@H]1C [Example I-182]
Response: 100 to 1000 nM

Request: // lookup IC50 | system=BRD4 BD1 (Homo sapiens, UniProt O60885) | key= CC(=O)N1c2ccc(-c3cccc(S(=O)(=O)C4CC4)c3)cc2N(C(=O)C2CC2)C[C@@H]1C [Example I-1086]
Response: 1000 to 10000 nM

Request: // lookup IC50 | system=BRD4 BD1 (Homo sapiens, UniProt O60885) | key= CC(C)OC(=O)N1C[C@H](C)N(C(=O)C2CC2)c2ccc(-c3ccc(C(=O)NCCN)cc3)cc21 [Example I-481]
Response: 100 to 1000 nM

Request: // lookup IC50 | system=BRD4 BD1 (Homo sapiens, UniProt O60885) | key= CC(=O)N1c2ccc(-c3cnn(Cc4c(C)noc4C)c3)cc2N(C(=O)OC(C)C)C[C@@H]1C [Example I-602]
Response: 100 to 1000 nM

Request: // lookup IC50 | system=BRD4 BD1 (Homo sapiens, UniProt O60885) | key= CC(=O)N1c2ccc(-c3nccn3C)cc2N(C(=O)c2ccco2)C[C@@H]1C [Example I-388]
Response: > 10000 nM

====

target: BRD4 BD2 (Homo sapiens, UniProt O60885); test: AlphaScreen binding assay, BRD4 Bromodomain 2
QUANTITY: IC50

> print(dat)
                                   molecule  quantity     obs.value
1  CC(=O)N1c2ccc(-c3cnn(C4CC4)c3)cc2N(C(=O)OCCC(F)(F)F)C[C@@H]1C [Example I-78]      IC50  50 to 500 nM
2  CC(=O)N1c2ccc(-c3cnn(CC(=O)N4CCCCC4)c3)cc2N(C(=O)OC(C)C)C[C@@H]1C [Example I-599]      IC50       < 50 nM

Request: I'd like to know its IC50. The molecule in question is CC(=O)N1c2ccc(-c3ccc(S(=O)(=O)CCN)cc3)cc2N(C(=O)c2ccco2)C[C@@H]1C [Example I-425]
Response: < 50 nM

Request: I'd like to know its IC50. The molecule in question is COC(=O)N1c2ccc(-c3cnn(CC4CCOCC4)c3)cc2N(C(=O)OC(C)C)C[C@@H]1C [Example I-641]
Response: 50 to 500 nM

Request: I'd like to know its IC50. The molecule in question is CC(C)OC(=O)N1C[C@H](C)N(C(=O)C2CC2)c2ccc(-c3cnn(C[C@H]4CCNC4)c3)cc21 [Example I-690]
Response: 50 to 500 nM

Request: I'd like to know its IC50. The molecule in question is CC(=O)N1c2ccc(-c3cnn(C4COC4)c3)cc2N(C(=O)C(C)C)C[C@@H]1C [Example I-109]
Response: > 500 nM

Request: I'd like to know its IC50. The molecule in question is CC(=O)N1c2ccc(-c3ccc(-c4ccccc4)cc3)cc2N(C(=O)COc2ccccc2)C[C@@H]1C [Example I-797]
Response: > 500 nM

====

target: BRD4 BD2 (Homo sapiens, UniProt O60885); experiment: AlphaScreen binding assay, BRD4 Bromodomain 2
pIC50: −log10 of the molar value.
QUANTITY: pIC50

Request: // lookup pIC50 | system=BRD4 BD2 (Homo sapiens, UniProt O60885) | key= CC(=O)N1c2ccccc2N(C(=O)CCN2CCCCCC2=O)C[C@@H]1C [Example I-765]
Response: < 6.30

Request: // lookup pIC50 | system=BRD4 BD2 (Homo sapiens, UniProt O60885) | key= CC(=O)N1c2cc(Br)c(-c3cnn(C4CC4)c3)cc2N(C(=O)OC(C)C)C[C@@H]1C [Example I-209]
Response: < 6.30
